Data provenance: patent US20230143345A1

# Tested on: SARS-CoV-2
# Method Description: microbe, parasite or virus in culture
# Type: cell-based
# Run Conditions: Severe acute respiratory syndrome coronavirus 2, Vero, read-out: SARS-CoV-2 virus 50% inhibitory ability (IC50 value)
Readout Kind: pIC50
pIC50 field: float, defined as -log10 of concentration (mol/L).

**Q:** I would be grateful if you could share the reported pIC50 for COc1cc2cc3c(c(-c4cc5c(cc4O)OCO5)c2cc1OC)C(=O)OC3 [6′ hydroxyl justicidin-B] .
**A:** 7.30

----------
# System: SARS-CoV-2
# Method Description: microbe, parasite or virus in culture
# Assay type: cell-based
# Run Conditions: read-out: SARS-CoV-2 virus 50% inhibitory ability (IC50 value)
Readout Kind: IC50 (µM)
Give the value, in units of µM, as a plain number.

{"Compound": "CCC(CC)COC(=O)[C@H](C)N[P@](=O)(OC[C@H]1O[C@@](C#N)(c2ccc3c(N)ncnn23)[C@H](O)[C@@H]1O)Oc1ccccc1 [Remdesivir]", "IC50 (µM)": 12.7}

In the following, a different compound is considered.
**Q:** Bench note: what IC50 did COc1cc2cc3c(c(-c4ccc5c(c4)OCO5)c2cc1OC)C(=O)OC3 [Justicidin-B] show?
**A:** 0.203

----------
# Test system: Vero cell lines
# Method Description: Cell viability of Vero cells in the SARS-CoV-2 inhibition experiment (Example 2)
# Run Conditions: concentration 0.20 uM
Readout Kind: Cell viability (%, average ± standard deviation) (%)
Provide only the numeric value, understood in %.

Worked cases, Cell viability (%, average ± standard deviation) given:
{"Compound": "COc1cc2cc3c(c(-c4cc5c(cc4O)OCO5)c2cc1OC)C(=O)OC3 [6′ hydroxyl justicidin-B]", "Measured Value": 104.63}
{"Compound": "COc1cc2cc3c(c(-c4ccc5c(c4)OCO5)c2cc1OC)C(=O)OC3", "Measured Value": 110.62}
{"Compound": "CCN(CC)CCCC(C)Nc1ccnc2cc(Cl)ccc12 (stereo not shown)", "Measured Value": 87.70}

**Q:** Please give the measured Cell viability (%, average ± standard deviation) for this compound: COc1cc2c(OC)c3c(c(-c4ccc5c(c4)OCO5)c2cc1OC)C(=O)OC3
**A:** 97.6

----------
Cell viability (%, average ± standard deviation) listing for selected compounds.
# Tested on: Vero cell lines
# Method Description: Cell viability of Vero cells in the SARS-CoV-2 inhibition experiment (Example 2)
# Run Conditions: concentration 3.13 uM
Entry rule: numbers only, all in %.

Example compounds with recorded Cell viability (%, average ± standard deviation):
{"Compound": "COc1cc2cc3c(c(-c4cc5c(cc4O)OCO5)c2cc1OC)C(=O)OC3 [6′ hydroxyl justicidin-B]", "Quantity Unit": "%", "Measured Value": 105.46}
{"Compound": "CCN(CC)CCCC(C)Nc1ccnc2cc(Cl)ccc12 (stereo not shown) [Chloroquine]", "Quantity Unit": "%", "Measured Value": 97.41}
{"Compound": "COc1cc2c(OC)c3c(c(-c4ccc5c(c4)OCO5)c2cc1OC)C(=O)OC3 [Justicidin-A]", "Quantity Unit": "%", "Measured Value": 98.4}

Note: attention shifts to another entry.
**Q:** Item COc1cc2cc3c(c(-c4ccc5c(c4)OCO5)c2cc1OC)C(=O)OC3 [Justicidin-B] with Vero cell lines - Cell viability (%, average ± standard deviation)?
**A:** 98.69

----------
Known Cell viability (%, average ± standard deviation) of a selection of compounds
# Tested on: Vero cell lines
# Method Description: Cell viability of Vero cells in the SARS-CoV-2 inhibition experiment (Example 2)
# Run Conditions: concentration 1.56 uM
# number only, unit % dropped from output

Illustrative cases are given below, each with its answer.
{"Compound": "COc1cc2c(OC)c3c(c(-c4ccc5c(c4)OCO5)c2cc1OC)C(=O)OC3", "Target Of Assay": "Vero cell lines", "Measured Value": 97.4}
{"Compound": "COc1cc2cc3c(c(-c4ccc5c(c4)OCO5)c2cc1OC)C(=O)OC3", "Target Of Assay": "Vero cell lines", "Measured Value": 102.83}
{"Compound": "CCN(CC)CCCC(C)Nc1ccnc2cc(Cl)ccc12 (stereo not shown)", "Target Of Assay": "Vero cell lines", "Measured Value": 89.11}

Now turn to the next compound.
**Q:** Param readout= Cell viability (%, average ± standard deviation); system= Vero cell lines; entry= COc1cc2cc3c(c(-c4cc5c(cc4O)OCO5)c2cc1OC)C(=O)OC3 [6′ hydroxyl justicidin-B] ; returns value.
**A:** 107.86

----------
# key: entry, value: Cell viability (%, average ± standard deviation)
# Test system: Vero cell lines
# Method Description: Cell viability of Vero cells in the SARS-CoV-2 inhibition experiment (Example 2)
# Run Conditions: concentration 6.25 uM
The figure you give is taken to be in %; do not add the unit.

{"Molecule": "CCN(CC)CCCC(C)Nc1ccnc2cc(Cl)ccc12 (stereo not shown)", "Measured Value": 90.84}

**Q:** GET /values?readout=Cell viability (%, average ± standard deviation)&item= COc1cc2c(OC)c3c(c(-c4ccc5c(c4)OCO5)c2cc1OC)C(=O)OC3
**A:** 96.9

**Q:** May I ask what Cell viability (%, average ± standard deviation) has been recorded for COc1cc2cc3c(c(-c4ccc5c(c4)OCO5)c2cc1OC)C(=O)OC3 ?
**A:** 94.60

**Q:** Look at this molecule and give its reported Cell viability (%, average ± standard deviation). COc1cc2cc3c(c(-c4cc5c(cc4O)OCO5)c2cc1OC)C(=O)OC3 [6′ hydroxyl justicidin-B]
**A:** 103.44

----------
# Test system: Vero cell lines
# Method Description: Cell viability of Vero cells in the SARS-CoV-2 inhibition experiment (Example 2)
# Run Conditions: concentration 50 uM
Recorded Cell viability (%, average ± standard deviation) by entry
# value in %; strip the unit string

Illustrative cases are given below, each with its answer.
{"Molecule": "COc1cc2c(OC)c3c(c(-c4ccc5c(c4)OCO5)c2cc1OC)C(=O)OC3", "Measured Value": 98.0}
{"Molecule": "COc1cc2cc3c(c(-c4ccc5c(c4)OCO5)c2cc1OC)C(=O)OC3", "Measured Value": 78.67}
{"Molecule": "COc1cc2cc3c(c(-c4cc5c(cc4O)OCO5)c2cc1OC)C(=O)OC3 [6′ hydroxyl justicidin-B]", "Measured Value": 93.38}

**Q:** Returns the measured Cell viability (%, average ± standard deviation) for the input molecule. Input: CCN(CC)CCCC(C)Nc1ccnc2cc(Cl)ccc12 (stereo not shown)
**A:** 59.69

----------
Each entry below carries its recorded Cell viability (%, average ± standard deviation).
# Tested on: Vero cell lines
# Method Description: Cell viability of Vero cells in the SARS-CoV-2 inhibition experiment (Example 2)
# Run Conditions: concentration 25 uM
Kindly provide the numeric value in % only, without the unit symbol.

Guide cases for Cell viability (%, average ± standard deviation), answers given:
{"Compound": "COc1cc2cc3c(c(-c4ccc5c(c4)OCO5)c2cc1OC)C(=O)OC3", "Quantity Unit": "%", "Measured Value": 83.49}
{"Compound": "COc1cc2c(OC)c3c(c(-c4ccc5c(c4)OCO5)c2cc1OC)C(=O)OC3", "Quantity Unit": "%", "Measured Value": 99.5}

**Q:** For COc1cc2cc3c(c(-c4cc5c(cc4O)OCO5)c2cc1OC)C(=O)OC3 [6′ hydroxyl justicidin-B] , what is its reported Cell viability (%, average ± standard deviation)?
**A:** 97.80

**Q:** Field request: Cell viability (%, average ± standard deviation) | item: CCN(CC)CCCC(C)Nc1ccnc2cc(Cl)ccc12 (stereo not shown)
**A:** 71.29
